assay_text: Phase 1 multiple ascending dose (MAD) plasma pharmacokinetics
Type: in vivo, human
conditions: human, plasma, oral, 840 mg, 840 mg QD, Day 3, age up to 64 years (n = 7); read-out: Tmax (median)

| molecule | Tmax |
| --- | --- |
| CC(C)(C)Oc1cc(CCC(C)(C)N2Cc3ccc(S(C)(=O)=O)cc3C2)ccc1O [CT1812] | 2 h |

* * *

assay_text: Phase 1 single ascending dose (SAD)/food-effect plasma pharmacokinetics
Type: in vivo, human
conditions: human, plasma, oral, 1120 mg, single 1120 mg, fasted (n = 6); read-out: t1/2 (mean) (converted)
recorded_endpoint: half-life

| compound | recorded_endpoint | test_value |
| --- | --- | --- |
| CC(C)(C)Oc1cc(CCC(C)(C)N2Cc3ccc(S(C)(=O)=O)cc3C2)ccc1O [CT1812] | half-life | 11.8 h |
